measured-target: GST-HsPRMT7 (Homo sapiens, UniProt Q9NVM4)
Construct: full-length human PRMT7 (residues 1–692); 34693; host or cells: E. coli BL21 DE3
Sequence (Q9NVM4 whole entry, the tested form may be a part): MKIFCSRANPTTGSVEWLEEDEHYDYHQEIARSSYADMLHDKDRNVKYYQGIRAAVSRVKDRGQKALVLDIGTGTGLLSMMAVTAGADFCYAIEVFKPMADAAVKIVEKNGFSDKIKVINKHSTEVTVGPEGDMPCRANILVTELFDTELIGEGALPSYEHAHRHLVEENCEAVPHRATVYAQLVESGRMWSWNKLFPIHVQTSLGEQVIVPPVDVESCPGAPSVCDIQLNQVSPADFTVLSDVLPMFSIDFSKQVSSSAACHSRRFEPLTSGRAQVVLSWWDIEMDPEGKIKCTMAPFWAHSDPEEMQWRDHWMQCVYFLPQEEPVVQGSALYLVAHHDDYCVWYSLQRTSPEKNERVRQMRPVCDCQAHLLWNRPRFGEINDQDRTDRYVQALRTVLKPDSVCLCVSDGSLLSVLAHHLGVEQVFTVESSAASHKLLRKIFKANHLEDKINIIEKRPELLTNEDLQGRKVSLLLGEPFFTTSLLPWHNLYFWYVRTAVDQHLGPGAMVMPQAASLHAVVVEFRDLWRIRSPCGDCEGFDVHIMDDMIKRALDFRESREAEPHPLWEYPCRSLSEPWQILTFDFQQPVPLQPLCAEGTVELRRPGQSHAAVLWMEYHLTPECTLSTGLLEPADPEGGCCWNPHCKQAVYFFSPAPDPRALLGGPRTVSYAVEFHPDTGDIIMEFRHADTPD
assay-text: Michaelis-Menten kinetics of peptide substrate methylation (P81 phosphocellulose paper assay)
Type: biochemical
run-conditions: no added salt; apparent km of peptide substrate; 5 μg GST-HsPRMT7, various peptide concentrations, 0.14 μM [3H]-AdoMet, 60 min, 25°C, pH 9.5; Michaelis-Menten fit, triplicates (Fig 8); read-out: km
reported-metric: Km (µM)
Record the value in µM, omitting the unit from your answer.

Field: example entries. Status: answers known.
{"columns": ["substance", "reported-value"],
 "data": [
  ["Ac-KKDGKKRKRSRKESY-NH2 [Hs H2B (23–37), synthetic peptide of amino acids 23–37 of human histone H2B, PRMT7 substrate used as positive control, reference compound]", 0.6],
  ["Ac-KKGGRGGGGKKY-NH2 [Mono R, synthetic peptide with a single arginine flanked by glycine and lysine residues]", 1.4]
]}

Now look at this entry.
Task: Looking for the measured Km of Ac-KKGGRERGGKKY-NH2 [synthetic RXR peptide with glutamate within the motif] , can you help?
Result: 2.8
